These measurements were taken from paper PMC6016464.

Target: T1, A1 protein (mouse, residues 1-152, P104K C113S, used as wild type) (mouse)
T1 sequence (Q07440 1-152 with P104K C113S, looked up): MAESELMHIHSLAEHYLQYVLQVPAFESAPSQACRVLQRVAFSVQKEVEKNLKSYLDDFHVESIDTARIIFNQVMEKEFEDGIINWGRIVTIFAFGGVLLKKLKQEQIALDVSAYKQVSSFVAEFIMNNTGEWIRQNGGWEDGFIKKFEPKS
Assay: stopped-flow fluorescence kinetics; association; TAMRA-labelled peptide with folded partner at least 10-fold higher (pseudo-first-order); kon from the gradient of kobs versus partner concentration; 25 °C; 50 mM sodium phosphate, 0.05% (v/v) Tween 20, pH 7.0
Where no end group is shown, it is not given here. The star is where a group is joined. TAMRA = 5-carboxytetramethylrhodamine, CN(C)c1ccc2c(-c3ccc(C(=O)*)cc3C(=O)[O-])c3ccc(=[N+](C)C)cc-3oc2c1
QUANTITY NAME: kon (M⁻¹ s⁻¹)
Your answer should be a plain number; it is taken to be in M⁻¹ s⁻¹.

Consider the worked cases shown below.
{TAMRA}-SESQEEIIHNIAAHLAQIGDEMDHNIQPTLVRQLA (peptide, UniProt P70444 76-110, looked up, BID, mouse, residues 76-110, UniProt P70444; source: synthetic peptide (Biomatik)) [BID R88A peptide, TAMRA-labelled] : 5.3e+06
{TAMRA}-RVEEEEWAREIGGQLRRAADDLNGQYERRRQEEQH (peptide, UniProt Q99ML1 127-161, looked up, PUMA, mouse, residues 127-161, UniProt Q99ML1; Double mutant; also called A150G (A139G); source: synthetic peptide (Biomatik)) [PUMA (A139G A150G) peptide (on the M144A wild type), TAMRA-labelled] : 2.78e+06
{TAMRA}-SESQEEIIHNIAGHLAQIGDEMDHNIQPTLVRQLA (peptide, UniProt P70444 76-110, looked up, BID, mouse, residues 76-110, UniProt P70444; source: synthetic peptide (Biomatik)) [BID R88G peptide, TAMRA-labelled] : 4.9e+06
{TAMRA}-RVEEEEWAREIGAQLRRAADDLNAQYEGRRQEEQH [PUMA R154G peptide (on the M144A wild type), TAMRA-labelled] : 4.79e+06
{TAMRA}-SESQEEIIHNIARHLAQIGDGMDHNIQPTLVRQLA (peptide, UniProt P70444 76-110, looked up, BID, mouse, residues 76-110, UniProt P70444; source: synthetic peptide (Biomatik)) [BID E96G peptide, TAMRA-labelled] : 7.8e+06

From here, focus on the item given below.
Would you mind telling me what kon value was observed for {TAMRA}-SESQEEIIHNIARHLAQIGDEADHNIQPTLVRQLA (peptide, UniProt P70444 76-110, looked up, BID, mouse, residues 76-110, UniProt P70444; source: synthetic peptide (Biomatik)) [BID M97A peptide, TAMRA-labelled] ?
8.1e+06
